Recorded melting point, one value per entry.

Looking for the measured melting point of O=c1[nH]c(-c2ccccc2)nc2nccnc12 , can you help? 283.5 to 284.5 °C

Please give the result for CN(C)C(=O)c1nccnc1NC(=O)c1ccc(Cl)cc1 too. 184.1 to 185.3 °C

Next compound: O=c1[nH]c(-c2ccc(Br)cc2)nc2nccnc12 315.4 to 317.4 °C

And then Cc1ccccc1C(=O)Nc1nccnc1C(N)=O , what is it? 234.4 to 235.9 °C

Could you do the same for O=c1[nH]c(-c2ccc(Cl)cc2)nc2nccnc12 , please? 306.5 to 307.9 °C

====

system: Staphylococcus epidermidis CCM 4418 (ATCC 12228); assay: Antibacterial microdilution broth (EUCAST), SE; format: cell-based; conditions: read after 24 h, read-out: SE MIC
Value Type: MIC

{"Compound": "O=c1[nH]c(-c2ccc(Cl)cc2)nc2nccnc12 [Compound 42]", "Test Target": "Staphylococcus epidermidis CCM 4418 (ATCC 12228)", "Value Type": "MIC", "Obs Value": "> 125 µM"}
{"Compound": "Cc1ccccc1C(=O)Nc1nccnc1C(N)=O [Compound 2]", "Test Target": "Staphylococcus epidermidis CCM 4418 (ATCC 12228)", "Value Type": "MIC", "Obs Value": "> 500 µM"}
{"Compound": "COC(=O)c1nccnc1NC(=O)c1cccc(Br)c1 [Compound 17e]", "Test Target": "Staphylococcus epidermidis CCM 4418 (ATCC 12228)", "Value Type": "MIC", "Obs Value": "> 500 µM"}
{"Compound": "CC(C)(C)c1ccc(C(=O)Nc2nccnc2C(N)=O)cc1 [Compound 6]", "Test Target": "Staphylococcus epidermidis CCM 4418 (ATCC 12228)", "Value Type": "MIC", "Obs Value": "> 125 µM"}
{"Compound": "NC(=O)c1nccnc1NC(=O)c1cccc(Cl)c1 [Compound 14]", "Test Target": "Staphylococcus epidermidis CCM 4418 (ATCC 12228)", "Value Type": "MIC", "Obs Value": "> 125 µM"}
{"Compound": "COc1ccccc1C(=O)Nc1nccnc1C(N)=O [Compound 7]", "Test Target": "Staphylococcus epidermidis CCM 4418 (ATCC 12228)", "Value Type": "MIC", "Obs Value": "> 500 µM"}
{"Compound": "Cc1cccc(C(=O)Nc2nccnc2C(N)=O)c1 [Compound 3]", "Test Target": "Staphylococcus epidermidis CCM 4418 (ATCC 12228)", "Value Type": "MIC", "Obs Value": "> 500 µM"}
{"Compound": "NC(=O)c1nccnc1NC(=O)c1ccc(Br)cc1 [Compound 18]", "Test Target": "Staphylococcus epidermidis CCM 4418 (ATCC 12228)", "Value Type": "MIC", "Obs Value": "> 500 µM"}

Reported MIC, compound CCc1ccc(C(=O)Nc2nccnc2C(N)=O)cc1 [Compound 5] : ____ > 250 µM

What would you report for CNC(=O)c1nccnc1NC(=O)c1ccc(Cl)cc1 [Compound 34] ? > 125 µM
